Molecular target: SSTR4 (Homo sapiens (Human))
Test: Inhibition of forskolin stimulated cAMP in CHO-K1 cells overexpressing SSTR4
Type: cell-based
Source text: Inhibition of Forskolin Stimulated cAMP in Cells Overexpressing SSTR4 This cell-based assay measures the ability of compounds to inhibit forskolin stimulated cAMP in CHO-K1 cells overexpressing SSTR4. CHO-K1 cells overexpressing SSTR4 (CHO-SSTR4) are purchased from DiscoveRx (product code 95-0059C2). […] Cellular cAMP levels are detected with a HTRF LANCE Ultra cAMP kit (Perkin Elmer, catalog number TRF0264). […]
QUANTITY MEASURED: SSTR4 Activity pEC50

>  <MOLECULE>
CN1CCC(NC(=O)C2(COc3ncccc3C3CC3)CCC2)CC1

>  <SSTR4 Activity pEC50>
6.8

$$$$
>  <MOLECULE>
Cc1ccc(C)c(OCC(C)(C)C(=O)NC2CCN(C)CC2)n1

>  <SSTR4 Activity pEC50>
7.3

$$$$
>  <MOLECULE>
Cc1nn(C)cc1[C@@H]1CN(C)C[C@H]1NC(=O)C(C)(C)COc1ncccc1C(F)(F)F (relative stereo)

>  <SSTR4 Activity pEC50>
8.3

$$$$
>  <MOLECULE>
C[C@H]1CN(C)CC[C@@H]1NC(=O)C(C)(C)COc1ccccc1Cl

>  <SSTR4 Activity pEC50>
8.9

$$$$

---

Measured SSTR1 Binding pIC50 of individual entries
Target: SSTR1 (Homo sapiens (Human), UniProt P30872)
Sequence (P30872 whole entry): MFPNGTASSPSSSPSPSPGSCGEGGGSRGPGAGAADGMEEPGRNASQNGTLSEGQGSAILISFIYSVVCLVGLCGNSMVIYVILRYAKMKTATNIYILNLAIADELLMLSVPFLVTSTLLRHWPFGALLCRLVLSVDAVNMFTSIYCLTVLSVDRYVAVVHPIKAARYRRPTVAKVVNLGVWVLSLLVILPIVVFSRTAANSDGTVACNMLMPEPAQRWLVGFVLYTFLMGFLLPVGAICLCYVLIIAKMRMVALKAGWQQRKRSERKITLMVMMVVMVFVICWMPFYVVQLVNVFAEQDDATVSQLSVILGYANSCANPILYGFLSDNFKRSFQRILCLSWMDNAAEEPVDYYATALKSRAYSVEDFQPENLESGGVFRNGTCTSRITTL
Assay: SSTR1 I-125 somatostatin competition binding assay for selectivity versus SSTR4 (membranes from CHO-K1 cells overexpressing SSTR1);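 further: Filter-based radioligand binding, bound label counted by scintillation after 60 min incubation at room temperature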
Conditions: competition with I-125 labeled somatostatin, CHO-K1 SSTR1 membranes
Output: the number by itself.

>  <COMPOUND>
Cc1ccccc1OCC(C)(C)C(=O)NC1CCN(C)CC1 [Example 76]

>  <SSTR1 Binding pIC50>
4.7

$$$$

### Prompt Notebook entry, SSTR1 (Homo sapiens (Human), UniProt P30872) assay: SSTR1 Binding pIC50 of CC(C)[C@@H]1CN(C)C[C@H]1NC(=O)C(C)(C)COc1ncccc1OC(F)(F)F (relative stereo) [Example 16] = ?
### Response 5.5

### Prompt I'm curious: which SSTR1 Binding pIC50 was measured for CCc1ccccc1OCC(C)(C)C(=O)NC1CCN(C)CC1 [Example 72] tested on SSTR1 (Homo sapiens (Human), UniProt P30872)?
### Response 4.8

---

Target: SSTR1 (Homo sapiens (Human))
Test: SSTR1 I-125 somatostatin competition binding assay for selectivity versus SSTR4 (membranes from CHO-K1 cells overexpressing SSTR1)
Conditions: competition with I-125 labeled somatostatin, CHO-K1 SSTR1 membranes
QUANTITY MEASURED: SSTR1 Binding pIC50
Number, no unit, nothing else.

Solved entries:
>  <MOLECULE>
CN1CC(NC(=O)C(C)(C)COc2ncccc2C(F)(F)F)C2(CC2)C1 (centres unmarked) [Example 138]

>  <SSTR1 Binding pIC50>
5.7

$$$$
>  <MOLECULE>
CN1CCC(NC(=O)C(C)(C)COc2ccccc2OC(F)(F)F)CC1 [Example 102]

>  <SSTR1 Binding pIC50>
5.6

$$$$
>  <MOLECULE>
C[C@@H]1CN(C)CC[C@H]1NC(=O)C(C)(C)COc1ccccc1Cl (relative stereo) [Example 186]

>  <SSTR1 Binding pIC50>
5.5

$$$$
>  <MOLECULE>
CCc1ccccc1OCC(C)(C)C(=O)NC1CCN(CC(=O)c2ccc(Cl)cc2)CC1 [Example 104]

>  <SSTR1 Binding pIC50>
4.8

$$$$
>  <MOLECULE>
C[C@H]1CNCC[C@@H]1NC(=O)C(F)(F)COc1ncccc1OC(F)(F)F [Example 210]

>  <SSTR1 Binding pIC50>
4.5

$$$$

### Prompt Item: Cc1c([C@@H]2CN(C)C[C@H]2NC(=O)C(C)(C)COc2ncccc2C2CC2)cnn1C (relative stereo) [Example 27] Test system: SSTR1 (Homo sapiens (Human)) Read-out: SSTR1 Binding pIC50 Value: ?
### Response 6.9

### Prompt Lab request: please report SSTR1 Binding pIC50 under test system SSTR1 (Homo sapiens (Human)) for Cc1cccnc1OCC(C)(C)C(=O)N[C@H]1CCN(C)C[C@@H]1C [Example 143]
### Response 4.8

### Prompt Which SSTR1 Binding pIC50 is reported with SSTR1 (Homo sapiens (Human)) for this entry: CN1CC[C@@H](NC(=O)C(C)(C)COc2ccccc2C(F)(F)F)C1 [Example 65] ?
### Response 5.1

---

Molecular target: SSTR4 (Homo sapiens (Human))
Experiment: Inhibition of forskolin stimulated cAMP in CHO-K1 cells overexpressing SSTR4
Assay type: cell-based
Text: Inhibition of Forskolin Stimulated cAMP in Cells Overexpressing SSTR4 This cell-based assay measures the ability of compounds to inhibit forskolin stimulated cAMP in CHO-K1 cells overexpressing SSTR4. CHO-K1 cells overexpressing SSTR4 (CHO-SSTR4) are purchased from DiscoveRx (product code 95-0059C2). […] Cellular cAMP levels are detected with a HTRF LANCE Ultra cAMP kit (Perkin Elmer, catalog number TRF0264). […]
QUANTITY MEASURED: SSTR4 Activity pEC50

>  <STRUCTURE SMILES>
CC(C)(COc1ccccc1Cl)C(=O)NC1CCNCC1

>  <SSTR4 Activity pEC50>
8.7

$$$$
>  <STRUCTURE SMILES>
Cc1cc(C(F)(F)F)cnc1OCC(C)(C)C(=O)NC1CCN(C)CC1

>  <SSTR4 Activity pEC50>
6.0

$$$$
>  <STRUCTURE SMILES>
CN1CCC(NC(=O)C(C)(C)COc2ccccc2Br)CC1

>  <SSTR4 Activity pEC50>
8.1

$$$$
>  <STRUCTURE SMILES>
Cc1ccc(C2CC2)c(OCC(C)(C)C(=O)N[C@@H]2CCN(C)C2)n1

>  <SSTR4 Activity pEC50>
6.8

$$$$
>  <STRUCTURE SMILES>
O=C(N[C@H]1CCNC[C@@H]1F)C(F)(F)COc1ncccc1C(F)(F)F

>  <SSTR4 Activity pEC50>
7.7

$$$$

---

Molecular target: SSTR4 (Homo sapiens (Human), UniProt P31391)
Sequence (P31391 whole entry): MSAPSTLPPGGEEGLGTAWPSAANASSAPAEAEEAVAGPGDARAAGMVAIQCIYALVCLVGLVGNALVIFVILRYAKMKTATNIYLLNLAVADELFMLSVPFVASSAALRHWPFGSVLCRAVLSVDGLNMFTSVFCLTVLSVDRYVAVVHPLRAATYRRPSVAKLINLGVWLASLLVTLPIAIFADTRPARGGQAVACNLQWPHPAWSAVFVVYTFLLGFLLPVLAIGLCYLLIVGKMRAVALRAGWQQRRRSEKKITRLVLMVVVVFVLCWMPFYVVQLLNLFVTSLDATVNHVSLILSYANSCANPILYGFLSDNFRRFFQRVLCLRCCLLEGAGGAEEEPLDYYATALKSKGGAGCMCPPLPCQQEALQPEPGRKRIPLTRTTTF
Assay: Inhibition of forskolin stimulated cAMP in CHO-K1 cells overexpressing SSTR4
Format: cell-based
QUANTITY MEASURED: SSTR4 Activity pEC50

>  <MOLECULE>
CN1CCC(NC(=O)C(C)(C)COc2ncc(Br)cc2C(F)(F)F)CC1 [Example 100]

>  <SSTR4 Activity pEC50>
7.2

$$$$
>  <MOLECULE>
CN1CCC(NC(=O)C(C)(C)COc2ncccc2Cl)CC1 [Example 38]

>  <SSTR4 Activity pEC50>
7.0

$$$$
>  <MOLECULE>
CN1CCC(NC(=O)C(C)(C)COc2ncccc2C(F)(F)F)C(C)(C)C1 (centres unmarked) [Example 112]

>  <SSTR4 Activity pEC50>
6.1

$$$$
>  <MOLECULE>
C[C@@H]1C[C@H](NC(=O)C(C)(C)COc2ncccc2OC(F)(F)F)CCN1C [Example 179]

>  <SSTR4 Activity pEC50>
8.1

$$$$
>  <MOLECULE>
C[C@@H]1C[C@H](NC(=O)C(F)(F)COc2ncccc2C2CC2)CCN1C [Example 194]

>  <SSTR4 Activity pEC50>
8.4

$$$$
>  <MOLECULE>
C[C@@H]1C[C@H](NC(=O)C(F)(F)COc2ncccc2OC(F)(F)F)CCN1 [Example 212]

>  <SSTR4 Activity pEC50>
8.6

$$$$
>  <MOLECULE>
C[C@@H]1C[C@H](NC(=O)C(F)(F)COc2ncccc2OC(F)(F)F)CCN1C [Example 206]

>  <SSTR4 Activity pEC50>
7.7

$$$$
>  <MOLECULE>
Cc1cccnc1OCC(C)(C)C(=O)N[C@@H]1CCN(C)C[C@H]1C (relative stereo) [Example 17]

>  <SSTR4 Activity pEC50>
7.7

$$$$
>  <MOLECULE>
CC(C)(COc1ncccc1C(F)(F)F)C(=O)N[C@H]1CCNC[C@@H]1F [Example 158]

>  <SSTR4 Activity pEC50>
8.2

$$$$
>  <MOLECULE>
CN1CCC(NC(=O)C(C)(C)COc2nccnc2C2CC2)CC1 [Example 80]

>  <SSTR4 Activity pEC50>
6.1

$$$$
>  <MOLECULE>
CN1CC[C@H](NC(=O)C(C)(C)COc2ncccc2C2CC2)[C@@H](F)C1 [Example 123]

>  <SSTR4 Activity pEC50>
7.8

$$$$
>  <MOLECULE>
C[C@@H]1CN(C)CC[C@H]1NC(=O)C(C)(C)COc1ncccc1C(F)(F)F (single isomer, unassigned) [Example 106]

>  <SSTR4 Activity pEC50>
6.0

$$$$
>  <MOLECULE>
C[C@@H]1C[C@H](NC(=O)C(F)(F)COc2ncccc2C2CC2)CCN1 [Example 211]

>  <SSTR4 Activity pEC50>
8.9

$$$$
>  <MOLECULE>
CN1CC[C@@H](NC(=O)C(C)(C)COc2ncccc2C(F)(F)F)[C@H](c2ccccc2)C1 (relative stereo) [Example 164]

>  <SSTR4 Activity pEC50>
6.6

$$$$
>  <MOLECULE>
C[C@H]1CNCC[C@@H]1NC(=O)C(F)(F)COc1ccccc1Cl [Example 216]

>  <SSTR4 Activity pEC50>
9.4

$$$$
>  <MOLECULE>
Cc1cnc(OCC(C)(C)C(=O)NC2CCN(C)CC2)c(C2CC2)c1 [Example 6]

>  <SSTR4 Activity pEC50>
7.3

$$$$
>  <MOLECULE>
C[C@@H]1C[C@H](NC(=O)C(C)(C)COc2ncccc2C(F)(F)F)CCN1C [Example 176]

>  <SSTR4 Activity pEC50>
7.7

$$$$
